Test system: LOC_OS07G06570-cb004
Assay: thermal shift delta Tm vs DMSO control; higher = stronger stabilization (binding);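 note: purified Escherichia coli-expressed rice kinase domain construct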
Details: 12.5 µM; protein concentration 2 µM
Measured thermal shift delta Tm, listed per entry.
Use °C as the unit, but write only the number.

The examples below pair each entry with its known result.
CCNC(=O)Nc1ccc(-c2nc(N3CCOC[C@@H]3C)c3c(n2)C(C)(C)S(=O)(=O)C3)cc1 :: 1.9
O=c1cc(N2CCOCC2)oc2c(-c3ccc4c(c3)OCCO4)csc12 :: 1.45
CN1CCN(S(=O)(=O)c2ccc(-c3cnc(N)c(C(=O)Nc4cccnc4)n3)cc2)CC1 :: 1.34
CC(C)c1ccc2oc3nc(N)c(C(=O)O)cc3c(=O)c2c1 :: 0.44
CCn1nc(C2CCN(C(=O)CCO)CC2)nc1-c1cnc(N)c(-c2nnc(C(C)(C)C)o2)n1 :: 0.86

query: Give the measured thermal shift delta Tm for Cc1ccc(Nc2cc(N[C@@H]3CCCC[C@@H]3N)nnc2C(N)=O)nc1C
result: 1.39

query: Give the measured thermal shift delta Tm for CCn1c(N)c(C(=O)NC)c(=O)c2ccc(C#CC(C)(O)COC)nc21 (centres undefined)
result: 1.2

query: Give the measured thermal shift delta Tm for COc1cc2ncnc(Oc3cccc(NC(=O)Nc4cc(C(C)(C)C(F)(F)F)on4)c3)c2cc1OC
result: 1.77

query: Give the measured thermal shift delta Tm for COc1nccc(-c2c(-c3ccc(F)cc3)ncn2C2CCC(O)CC2)n1 (centres undefined)
result: 0.69

----------
Tested on: LOC_OS01G60330-cb001
Experiment: thermal shift delta Tm vs DMSO control; higher = stronger stabilization (binding)
Settings: 12.5 µM; protein concentration 2 µM
# cutoff 0.6 °C applies to thermal shift delta Tm; >= gives condition met, < gives condition not met

CC(C)n1nc(-c2cc3cc(O)ccc3[nH]2)c2c(N)ncnc21 :: condition met

query: Is reported thermal shift delta Tm greater than or equal to 0.6 °C here: C=CC(=O)Nc1cccc(C)c1Nc1ncc2cc(-c3c(Cl)c(OC)cc(OC)c3Cl)ccc2n1
result: condition met

query: Is reported thermal shift delta Tm greater than or equal to 0.6 °C here: CC(C)(C)S(=O)(=O)c1ccc2nccc(Nc3n[nH]c4ccc(F)cc34)c2c1
result: condition met

query: Is reported thermal shift delta Tm greater than or equal to 0.6 °C here: C[C@@H](Oc1cc(-c2cnn(C3CCNCC3)c2)cnc1N)c1c(Cl)ccc(F)c1Cl
result: condition met

query: Is reported thermal shift delta Tm greater than or equal to 0.6 °C here: CC(C)(C)NS(=O)(=O)c1cncc(-c2cc(F)c3nc(N)nn3c2)c1
result: condition met

query: Is reported thermal shift delta Tm greater than or equal to 0.6 °C here: COc1cc(N2CCC(N)CC2)ccc1Nc1ncc(Cl)c(-c2c[nH]c3ccccc23)n1
result: condition met

query: Is reported thermal shift delta Tm greater than or equal to 0.6 °C here: Cc1cc(Nc2nc(N[C@@H](C)c3ccc(F)cc3)c(C#N)cc2F)n[nH]1
result: condition met

query: Is reported thermal shift delta Tm greater than or equal to 0.6 °C here: CC(C)(O)CNc1ncc(-c2ccnc(Nc3ccnc(Cl)c3)n2)c(CC2CC2)n1
result: condition met

query: Is reported thermal shift delta Tm greater than or equal to 0.6 °C here: COc1cccc(-c2cc(=O)c3ccccc3o2)c1N
result: condition met

query: Is reported thermal shift delta Tm greater than or equal to 0.6 °C here: COc1cc(CCc2cc(NC(=O)c3ccc(N4CC(C)NC(C)C4)cc3)n[nH]2)cc(OC)c1 (centres undefined)
result: condition met

query: Is reported thermal shift delta Tm greater than or equal to 0.6 °C here: Cc1ccccc1-n1c(Cn2nc(-c3cccc(O)c3)c3c(N)ncnc32)nc2cccc(C)c2c1=O
result: condition not met

query: Is reported thermal shift delta Tm greater than or equal to 0.6 °C here: CNC(=O)c1ccccc1Nc1nc(Nc2ccc(N3CCOCC3)cc2OC)ncc1Cl
result: condition not met

query: Is reported thermal shift delta Tm greater than or equal to 0.6 °C here: C=C(C)[C@@H]1CC[C@]2(C)CC[C@]3(C)[C@H](CC[C@@H]4[C@@]5(C)CC[C@H](O)C(C)(C)[C@@H]5CC[C@]43C)[C@@H]12
result: condition not met

query: Is reported thermal shift delta Tm greater than or equal to 0.6 °C here: CC(C)CCN1c2nc(Nc3cc(F)c(O)c(F)c3)ncc2N(C)C(=O)C1C (centres undefined)
result: condition met

----------
Tested on: LOC_OS01G60330-cb001
Test: thermal shift delta Tm vs DMSO control; higher = stronger stabilization (binding)
Conditions: 12.5 µM; protein concentration 2 µM
Measured thermal shift delta Tm, listed per entry.
Use °C as the unit, but write only the number.

CCNC(=O)Nc1ccc(-c2nc3c(c(N4CCOC[C@@H]4C)n2)CCN(C2COC2)C3)cc1 :: 0.52
CN1CCN(c2ccc(C(=O)Nc3n[nH]c4ccc(Cc5cc(F)cc(F)c5)cc34)c(NC3CCOCC3)c2)CC1 [Entrectinib (RXDX-101)] :: 4.04
CC(C)NC(=O)C1CCC(n2c(NC(=O)c3ccc(F)cc3)nc3ccc(CN4CCC(C(C)(C)O)CC4)cc32)CC1 (configuration not stated) :: 1.95
CCc1cc(Nc2nccc(-c3c(-c4ccc(OC)c(C(=O)Nc5c(F)cccc5F)c4)nc4ccccn34)n2)c(OC)cc1N1CCC(N2CCN(S(C)(=O)=O)CC2)CC1 :: 0.65
COc1ccc(-c2nc(N3CCOCC3)c3sc(CN(C)c4ncc(C(=O)NO)cn4)cc3n2)cn1 :: 1.04

Here is the next item to consider.
query: Give the measured thermal shift delta Tm for COc1ccc(Oc2cc(NCCC(F)(F)F)c3ncc(-c4ccc(C(=O)NC5CC5)c(C)c4)n3n2)c(F)c1F
result: 1.27

----------
System: LOC_OS01G52050-cb004
Sequence (as listed by the source): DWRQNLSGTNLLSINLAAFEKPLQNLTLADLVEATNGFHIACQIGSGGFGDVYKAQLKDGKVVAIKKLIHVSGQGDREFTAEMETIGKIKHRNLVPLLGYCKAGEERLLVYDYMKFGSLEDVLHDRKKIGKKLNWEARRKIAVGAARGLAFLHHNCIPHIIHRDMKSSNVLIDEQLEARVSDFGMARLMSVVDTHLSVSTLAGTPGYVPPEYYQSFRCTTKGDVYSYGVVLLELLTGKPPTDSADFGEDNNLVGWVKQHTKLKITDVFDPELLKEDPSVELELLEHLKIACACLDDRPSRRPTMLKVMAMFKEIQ
Experiment: thermal shift delta Tm vs DMSO control; higher = stronger stabilization (binding)
Settings: 12.5 µM; protein concentration 2 µM
# cutoff 1 °C applies to thermal shift delta Tm; >= gives yes (1), < gives no (0)

Reference set, count: 5
CNCc1ccc(-c2cc(-c3nc(-c4ccc(S(=O)(=O)C(C)C)cc4)cnc3N)on2)cc1 :: yes (1)
CNC(=O)c1ccc(Nc2ncc(C(F)(F)F)c(NCc3nccnc3N(C)S(C)(=O)=O)n2)cc1 :: yes (1)
CC(C)c1c2cc(-c3ccnc(NC4CCC(NC5CCOCC5)CC4)n3)ccc2nn1C (stereo unspecified) :: yes (1)
COc1ccc(S(=O)(=O)N(CCO)c2ccccc2CN(C)C/C=C/c2ccc(Cl)cc2)cc1 [KN-93 Phosphate] :: no (0)
COc1cc(Nc2ncc(F)c(Nc3ccc4c(n3)N(COP(=O)(O)O)C(=O)C(C)(C)O4)n2)cc(OC)c1OC [R788 (Fostamatinib) Disodium] :: yes (1)

query: Is reported thermal shift delta Tm greater than or equal to 1 °C here: NC(=O)Nc1cc(-c2cccc(F)c2)sc1C(=O)N[C@H]1CCCNC1
result: yes (1)

query: Is reported thermal shift delta Tm greater than or equal to 1 °C here: O=C(Nc1nccs1)C(c1cc(F)ccc1O)N1Cc2ccccc2C1=O (stereo unspecified)
result: no (0)

----------
System: LOC_OS05G28520-cb001
Assay: thermal shift delta Tm vs DMSO control; higher = stronger stabilization (binding)
Settings: 12.5 µM; protein concentration 2 µM
EXPERIMENTAL ENDPOINT: thermal shift delta Tm (°C)
Use °C as the unit, but write only the number.

O=S(=O)(c1cccc2c(I)cccc12)N1CCCNCC1 :: 0.14
CCOc1cc2ncc(C#N)c(Nc3ccc(F)c(Cl)c3)c2cc1NC(=O)/C=C/CN(C)C [Pelitinib (EKB-569)] :: -0.33
CCNC(=O)Nc1ccc(-c2nc3c(c(N4CCOC[C@@H]4C)n2)CCN(C2COC2)C3)cc1 :: 0
CC(C)(C)c1cc(/C=C(\C#N)C(N)=S)cc(C(C)(C)C)c1O [Tyrphostin AG 879] :: 1.25
Cc1ccc(NC(=O)c2ccc(CN3CCN(C)CC3)cc2)cc1Nc1nc(-c2cccnc2)cs1 [Masitinib (AB1010)] :: 0.59
Cc1cc(Nc2cc(N3CCN(C)CC3)nc(/C=C/c3ccccc3)n2)n[nH]1 :: 7.06
O=C(c1ccc(F)c(F)c1Nc1ccc(I)cc1F)N1CC(O)([C@@H]2CCCCN2)C1 [Cobimetinib (GDC-0973, RG7420)] :: 0.07

Here is the next item to consider.
query: Give the measured thermal shift delta Tm for Cc1ccc(F)c(NC(=O)Nc2ccc(-c3cccc4[nH]nc(N)c34)cc2)c1 [Linifanib (ABT-869)]
result: 0.75

----------
System: LOC_OS04G57630-cb004
Test: thermal shift delta Tm vs DMSO control; higher = stronger stabilization (binding)
Conditions: 12.5 µM; protein concentration 2 µM
EXPERIMENTAL ENDPOINT: thermal shift delta Tm (°C)
Use °C as the unit, but write only the number.

The examples below pair each entry with its known result.
COc1cc2nccc(Oc3ccc(NC(=O)C4(C(=O)Nc5ccc(F)cc5)CC4)cc3)c2cc1OC [Cabozantinib malate (XL184)] :: 0.66
N#C/C(=C\c1ccc(O)c(O)c1)C(=O)NCc1ccccc1 :: -1.22
COc1cc2ncnc(Nc3ccc(F)c(Cl)c3)c2cc1NC(=O)/C=C/CN1CCCCC1 :: 0.99
FC(F)(F)c1ccc(CNc2ccc(Cc3c[nH]c4ncc(Cl)cc34)cn2)cn1 :: 1.53
Cc1nc(NC(=O)N2CCC[C@H]2C(N)=O)sc1-c1ccnc(C(C)(C)C(F)(F)F)c1 :: -0.02

Here is the next item to consider.
query: Give the measured thermal shift delta Tm for Cc1[nH]c(/C=C2\C(=O)Nc3ccccc32)c(C)c1CCC(=O)O [Orantinib (TSU-68, SU6668)]
result: 0.84
